Hey, just so you know, these numbers are from patent US20050282843A1.

- TARGET_SYSTEM: GSK-3β (Oryctolagus cuniculus, UniProt G1T8E2)
- Sequence (G1T8E2 1-432): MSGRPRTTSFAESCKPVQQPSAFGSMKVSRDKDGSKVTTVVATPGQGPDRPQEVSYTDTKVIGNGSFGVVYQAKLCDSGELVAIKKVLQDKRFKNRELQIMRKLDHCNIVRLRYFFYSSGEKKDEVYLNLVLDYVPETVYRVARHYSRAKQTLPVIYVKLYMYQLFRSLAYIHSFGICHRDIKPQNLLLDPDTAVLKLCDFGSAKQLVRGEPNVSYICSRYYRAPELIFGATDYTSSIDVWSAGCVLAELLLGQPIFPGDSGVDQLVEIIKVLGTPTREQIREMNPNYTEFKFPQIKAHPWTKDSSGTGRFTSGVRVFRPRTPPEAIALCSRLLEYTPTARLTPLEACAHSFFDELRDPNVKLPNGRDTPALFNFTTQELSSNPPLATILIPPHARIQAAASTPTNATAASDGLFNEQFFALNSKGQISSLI
- MEASUREMENT_DESCRIPTION: GSK-3β kinase assay (phosphorylation of CREB phosphopeptide)
- Format: biochemical, rabbit
- TEST_SETTINGS: read-out: Kinase inhibition IC50 GSK3β
pIC50: −log10 of the molar value.
// class assignment uses pIC50 with these ranges: low value: < 6; medium value: ≥ 6 and < 8; high value: ≥ 8

SMILES_CODE	CATEGORY
Cc1[nH]c(C#N)c(C)c1-c1ccnc(Nc2ccc(N(C)C)c([N+](=O)[O-])c2)n1	high value
Cc1c(-c2ccnc(Nc3ccc(F)c([N+](=O)[O-])c3)n2)sc(=O)n1C	high value
Cc1ccc(Nc2nccc(-c3sc(=O)n(C)c3C)n2)cc1[N+](=O)[O-]	medium value

-- ask Class (by measured pIC50) for Cc1cc(Nc2nccc(-c3c(C)[nH]c(C#N)c3C)n2)ccc1Cl
-- reply low value

-- ask Could you do the same for Cc1[nH]c(C#N)c(C)c1-c1ccnc(Nc2ccc(C(F)(F)F)cc2)n1 , please?
-- reply low value

-- ask Could you do the same for Cc1c(-c2ccnc(Nc3ccc(N(C)C)c([N+](=O)[O-])c3)n2)c(C)n(C)c1C#N , please?
-- reply medium value
